B1: library; a variant is named by its letters at N, in order (parent)
chain: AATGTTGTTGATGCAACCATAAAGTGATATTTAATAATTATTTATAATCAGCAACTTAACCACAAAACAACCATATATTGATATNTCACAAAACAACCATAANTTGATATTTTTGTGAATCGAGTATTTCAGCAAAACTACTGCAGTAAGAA

Variants of: B1
assay.comment: relative integration efficiency (T-LR orientation) vs wild-type transposon end (log2 (normalized fold change)); transposon end mutated: left end; higher = more efficient transposition
conditions: with VchCAST RNA-guided transposition machinery (E. coli BL21(DE3) host, lacZ target)
Label scheme for relative integration efficiency (log2): lower than -0.3 is Criterion not met, -0.3 and above is Criterion met.

{"change": "CG T41G T42G T43G A44C", "group": "Criterion met"}
{"change": "TA G24A T30A A70C T76A T86G T104G T113A", "group": "Criterion met"}
{"change": "CG G106T A107C T108G A109C", "group": "Criterion not met"}
{"change": "CG T30A T31A", "group": "Criterion met"}
{"change": "CG G117T A118C A119C T120G C121A G122T A123C G124T T125G", "group": "Criterion met"}

Could you tell me if the measured relative integration efficiency (log2) of CG A66T A67T reaches -0.3 or more? Criterion met

// query: CA A23G G24T A33T T104G T113A Criterion met

And for TA A22T G24T T31C A33C T76A T78G C87A A96C T112G T113C ? Criterion not met

// query: CG A69G Criterion not met

Now give it for CG T45G too. Criterion met

Item: CG A46C Criterion met

Data credit: the supplement of paper PMC10201428
